tested on: U2OS; assay: Multiplex assay against U2OS; type: toxicity, cell-based; conditions: human, 12 h, 1 µM, compound concentration 1 uM, replicate 1
Known Population Mitochondria Different-Phenotype (%) of a selection of molecules
Write down the numeric answer in % and omit the unit.

molecule=NC(=O)c1cccc(-c2cc(Nc3ccc(OC(F)(F)F)cc3)ncn2)c1 recorded_measurement=24
molecule="CN(C)C(=O)C(CCN1CCC(O)(c2ccc(Cl)cc2)CC1)(c1ccccc1)c1ccccc1.Cl [LOPERAMIDE HYDROCHLORIDE]" recorded_measurement=82
molecule=CNC(=O)c1ccc(Nc2nc(OC3CCCC3)c3c(-c4ccc5nc(C)oc5c4)c[nH]c3n2)c(OC)c1 recorded_measurement=45
molecule=CCNc1cc(N[C@H]2CC[C@H](O)CC2)nc(Nc2ccc3c(ccn3Cc3ccccc3)c2)n1 recorded_measurement=30
molecule="CN1C2CCC1CC(OC(c1ccc(F)cc1)c1ccc(F)cc1)C2.Cl (configuration not stated)" recorded_measurement=11

[ask] Fill in the blank: the reported Population Mitochondria Different-Phenotype (%) of `CCc1cccc(CC)c1NC(=O)c1nn(C)c2c1CCc1cnc(Nc3ccc(C(=O)NC4CCN(C)CC4)cc3OC(F)(F)F)nc1-2` is ____.
[reply] 22

[ask] How about `CNc1cc(Oc2cc(C(=O)Nc3cc(N4CCN(C)CC4)cc(C(F)(F)F)c3)ccc2C)ncn1` ?
[reply] 68

[ask] Query COc1ccc(-c2ccc3c(N4CCOCC4)nc(N4C[C@@H](C)O[C@@H](C)C4)nc3n2)cc1CO [Ku-0063794] next
[reply] 19

[ask] Then this molecule: `COc1ccc(S(=O)(=O)N(CCO)c2ccccc2CN(C)C/C=C/c2ccc(Cl)cc2)cc1.O=P(O)(O)O`
[reply] 91

[ask] Next record, please: O=C(Nc1ccc(-n2nc(-c3cccnc3)cc2C(F)(F)F)cn1)c1ccc(-c2ccccc2)c(F)c1 [BI 2049]
[reply] 10

[ask] Also `CCc1cccc(CC)c1NC(=O)c1nn(C)c2c1CCc1cnc(Nc3ccc(N4CCN(C)CC4)cc3OC)nc1-2` , if possible.
[reply] 75

[ask] How about Cn1nc(C(F)(F)F)cc1-c1cnc(N2CCc3cc(S(=O)(=O)Nc4c(F)cc(Cl)cc4F)cc(N4CCCC4=O)c32)nc1 [TP-020] ?
[reply] 18

[ask] Further, for `CCOc1cc(C(=O)N2CCC(N3CCN(C)CC3)CC2)ccc1Nc1ncc2c(n1)N(C1CCCC1)c1ccccc1C(=O)N2C` ?
[reply] 75

[ask] Likewise for `Cc1ccc(C(=O)Nc2cccc(C(F)(F)F)c2)cc1Nc1nc(-c2cccnc2)nc2c1cnn2C` ?
[reply] 12

[ask] Please give the result for `Cc1ccc2nc(NCCN)c3ncc(C)n3c2c1.O=C(O)C(F)(F)F.O=C(O)C(F)(F)F` too.
[reply] 17

[ask] What would you report for CCn1cc(-c2ccnc3[nH]c(-c4cccc(CN(C)C)c4)cc23)c(-c2ccc(NC(=O)N(C)C)cc2)n1 [GSK-1070916] ?
[reply] 17

[ask] Queued: O=C1NC(=O)C(c2cnc3ccccn23)=C1c1cn2c3c(cc(F)cc13)CN(C(=O)N1CCCCC1)CC2 [LY-2090314]
[reply] 31

[ask] Would you mind doing `Cl.O=c1c2cccn2c2ccccc2n1CCCN1CCC(c2ccc(Cl)cc2)CC1` as well?
[reply] 55

[ask] Follow-up item: C=C1/C(=C\C=C2/CCC[C@]3(C)[C@@H]([C@H](C)/C=C/[C@H](C)C(C)C)CC[C@@H]23)C[C@@H](O)C[C@@H]1O [DOXERCALCIFEROL]
[reply] 11

[ask] Next molecule up: `Cl.O=C(c1ccc(Nc2nccc(-c3cc4ccccc4s3)n2)cc1)N1CCC(N2CCCC2)CC1`
[reply] 11

[ask] Entry to check: `COC(=N)c1nc2ccc3ncnc(Nc4ccc(OC)cc4F)c3c2s1`
[reply] 25

[ask] Also `Cl.Oc1ccc2c3c1O[C@H]1c4[nH]c5c(c4C[C@@]4(O)[C@@H](C2)N(CC2CC2)CC[C@]314)C[C@@]1(O)[C@H]2Cc3ccc(O)c4c3[C@@]1(CCN2CC1CC1)[C@H]5O4` , if possible.
[reply] 15

[ask] Similarly, `O=C(Nc1ccc(-c2ccnc(Nc3ccc(N4CCOCC4)cc3)n2)cc1)[C@@H]1CCCN1` ?
[reply] 10

[ask] Queued: `Cc1cc(C)c(S(=O)(=O)N(Cc2ccc(-c3cccc(S(C)(=O)=O)c3)cc2)Cc2ccc(C(F)(F)F)o2)c(C)c1`
[reply] 18

[ask] How about CCOC(=O)c1c(C)[nH]c2ccc3c(c12)CN1CCc2cc(OC)ccc2C1O3 (configuration not stated) ?
[reply] 78

[ask] // next record CN1CCN(C(=O)C(C)(C)c2ccc(C(=O)Nc3cn4cc(-c5cc(C(C)(C)C)cc(C(C)(C)C)c5)ccc4n3)cc2)CC1 [T3-CLK-N]
[reply] 20

[ask] Please do the same for Cc1cn(-c2cc(NC(=O)c3ccc(C)c(Nc4nccc(-c5cccnc5)n4)c3)cc(C(F)(F)F)c2)cn1 [NILOTINIB] as well.
[reply] 77

[ask] Another molecule to look at: `CCn1c(=O)c(-c2ccc(-c3cncs3)cc2Cl)cc2cnc(Nc3ccc(N4CCN(C)CC4)cc3)nc21`
[reply] 11
